- assayProtocol: Inhibition of recombinant HCV genotype 1b NS3/4A protease expressed in Escherichia coli using Ac-DE-D(Edans)-EE-Abu-[COO]-AS-K(Dabcyl)-NH2 as substrate
- Parameters: species or system Hepatitis C virus subtype 1b
propertyLabel: IC50

Query O=C(/C=C/c1ccc(C(F)(F)F)cc1)NO yields IC50 of > 200 µM

====

- tgt: Disintegrin and metalloproteinase domain-containing protein 17 (Homo sapiens)
- Sequence (P78536 whole entry, the tested form may be a part): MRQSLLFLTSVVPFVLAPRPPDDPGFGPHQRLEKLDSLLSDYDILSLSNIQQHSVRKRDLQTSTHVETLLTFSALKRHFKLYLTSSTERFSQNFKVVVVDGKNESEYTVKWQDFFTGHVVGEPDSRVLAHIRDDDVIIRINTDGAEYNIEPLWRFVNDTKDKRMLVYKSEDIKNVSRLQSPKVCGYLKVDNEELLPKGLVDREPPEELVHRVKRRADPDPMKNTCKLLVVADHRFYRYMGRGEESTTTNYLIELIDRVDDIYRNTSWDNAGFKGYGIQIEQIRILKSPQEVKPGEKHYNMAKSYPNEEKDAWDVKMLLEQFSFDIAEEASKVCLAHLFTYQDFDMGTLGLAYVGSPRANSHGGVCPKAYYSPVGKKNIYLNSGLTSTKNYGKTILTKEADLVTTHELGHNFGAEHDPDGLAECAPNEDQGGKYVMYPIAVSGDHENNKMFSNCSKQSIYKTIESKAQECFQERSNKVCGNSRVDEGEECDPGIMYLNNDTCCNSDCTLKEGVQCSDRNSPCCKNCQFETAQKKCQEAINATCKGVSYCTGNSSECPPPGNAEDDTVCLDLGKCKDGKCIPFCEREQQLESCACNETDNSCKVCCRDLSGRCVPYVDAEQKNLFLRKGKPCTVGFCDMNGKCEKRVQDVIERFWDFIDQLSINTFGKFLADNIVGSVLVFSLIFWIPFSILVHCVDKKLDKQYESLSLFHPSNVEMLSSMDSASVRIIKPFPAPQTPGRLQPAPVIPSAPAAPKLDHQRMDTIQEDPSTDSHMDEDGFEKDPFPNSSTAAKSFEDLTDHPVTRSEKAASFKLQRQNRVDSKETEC
- assayProtocol: Inhibition of human recombinant TACE expressed in Sf21 cells using MCA-PLAQAV-Dpa-RSSSR-NH2 as substrate
propertyLabel: pIC50
In textbook form, pIC50 equals minus log to base ten of the concentration in mol/L.

Query O=C(/C=C/c1ccc(C(F)(F)F)cc1)NO yields pIC50 of 4.67

====

- tgt: Polyamine deacetylase HDAC10 (Homo sapiens, UniProt Q969S8)
- Sequence (Q969S8 whole entry): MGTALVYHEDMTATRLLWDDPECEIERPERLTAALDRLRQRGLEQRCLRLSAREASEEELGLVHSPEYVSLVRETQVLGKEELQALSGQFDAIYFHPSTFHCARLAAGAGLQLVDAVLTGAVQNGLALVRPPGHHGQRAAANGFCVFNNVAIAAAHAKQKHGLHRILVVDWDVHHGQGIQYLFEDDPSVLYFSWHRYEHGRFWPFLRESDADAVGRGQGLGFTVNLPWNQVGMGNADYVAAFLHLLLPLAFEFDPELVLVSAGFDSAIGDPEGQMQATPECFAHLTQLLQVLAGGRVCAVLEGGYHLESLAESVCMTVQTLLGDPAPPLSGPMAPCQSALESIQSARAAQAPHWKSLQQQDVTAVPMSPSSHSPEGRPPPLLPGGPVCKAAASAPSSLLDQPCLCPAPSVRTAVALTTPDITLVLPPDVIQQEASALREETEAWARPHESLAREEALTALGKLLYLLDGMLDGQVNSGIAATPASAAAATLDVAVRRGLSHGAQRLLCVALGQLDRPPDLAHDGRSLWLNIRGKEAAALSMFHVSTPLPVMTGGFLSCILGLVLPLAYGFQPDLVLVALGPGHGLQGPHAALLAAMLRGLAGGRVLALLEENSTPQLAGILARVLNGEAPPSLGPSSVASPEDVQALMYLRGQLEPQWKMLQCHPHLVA
propertyLabel: IC50 (µM)
Number in µM, nothing else.

Query O=C(/C=C/c1ccc(C(F)(F)F)cc1)NO yields IC50 of 6.32

====

- assayProtocol: Therapeutic index, ratio of CC50 for human HuH7 cells to EC50 for HCV genotype 1b replicon
- Type: cell-based, Huh-7
- assayContext: read-out: Ratio CC50/EC50
// values below are reported selectivity ratio

C#CCCCC(=O)NCCOCCOCCOc1ccc(C(=O)c2ccc(/C=C/C(=O)NO)cc2)cc1; 21

Then this molecule:
Query O=C(/C=C/c1ccc(C(=O)c2ccccc2)cc1)NO yields selectivity ratio of 33

====

// values below are reported half-life at 1 µM
- assayProtocol: Half life in human liver microsomes at 1 uM by LC-MS/MS analysis in presence of UDPGA
- Type: ADME
Number in h, nothing else.

O=C(/C=C/c1ccc(C(F)(F)F)cc1)NO; 8.88

Query O=C(NO)c1sc2ccccc2c1S(=O)(=O)c1ccccc1 yields half-life at 1 µM of 0.0233

====

- tgt: Matrilysin (Homo sapiens, UniProt P09237)
- Sequence (P09237 whole entry): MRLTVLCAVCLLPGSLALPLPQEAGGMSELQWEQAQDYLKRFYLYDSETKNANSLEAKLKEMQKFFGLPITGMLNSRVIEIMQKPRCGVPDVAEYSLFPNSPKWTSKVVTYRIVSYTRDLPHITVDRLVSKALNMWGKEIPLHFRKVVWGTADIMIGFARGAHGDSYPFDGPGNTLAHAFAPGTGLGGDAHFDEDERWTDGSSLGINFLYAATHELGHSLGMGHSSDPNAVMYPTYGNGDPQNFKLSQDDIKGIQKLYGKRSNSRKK
- assayProtocol: Inhibition of human recombinant MMP7 expressed in Escherichia coli using (5-FAM/QXLTM) FRET peptide as substrate
propertyLabel: IC50

Query O=C(/C=C/c1ccc(C(F)(F)F)cc1)NO yields IC50 of > 100 µM

====

- assayProtocol: Half life in mouse liver microsomes at 1 uM by LC-MS/MS analysis in presence of NADPH
- Type: ADME
// values below are reported half-life at 1 µM
Number in h, nothing else.

O=C(NO)c1sc2ccccc2c1S(=O)(=O)c1ccccc1; 1.31

Then this compound:
Query O=C(/C=C/c1ccc(C(F)(F)F)cc1)NO yields half-life at 1 µM of 0.77

====

- tgt: Histone deacetylase 7 (Homo sapiens)
- Sequence (Q8WUI4 whole entry): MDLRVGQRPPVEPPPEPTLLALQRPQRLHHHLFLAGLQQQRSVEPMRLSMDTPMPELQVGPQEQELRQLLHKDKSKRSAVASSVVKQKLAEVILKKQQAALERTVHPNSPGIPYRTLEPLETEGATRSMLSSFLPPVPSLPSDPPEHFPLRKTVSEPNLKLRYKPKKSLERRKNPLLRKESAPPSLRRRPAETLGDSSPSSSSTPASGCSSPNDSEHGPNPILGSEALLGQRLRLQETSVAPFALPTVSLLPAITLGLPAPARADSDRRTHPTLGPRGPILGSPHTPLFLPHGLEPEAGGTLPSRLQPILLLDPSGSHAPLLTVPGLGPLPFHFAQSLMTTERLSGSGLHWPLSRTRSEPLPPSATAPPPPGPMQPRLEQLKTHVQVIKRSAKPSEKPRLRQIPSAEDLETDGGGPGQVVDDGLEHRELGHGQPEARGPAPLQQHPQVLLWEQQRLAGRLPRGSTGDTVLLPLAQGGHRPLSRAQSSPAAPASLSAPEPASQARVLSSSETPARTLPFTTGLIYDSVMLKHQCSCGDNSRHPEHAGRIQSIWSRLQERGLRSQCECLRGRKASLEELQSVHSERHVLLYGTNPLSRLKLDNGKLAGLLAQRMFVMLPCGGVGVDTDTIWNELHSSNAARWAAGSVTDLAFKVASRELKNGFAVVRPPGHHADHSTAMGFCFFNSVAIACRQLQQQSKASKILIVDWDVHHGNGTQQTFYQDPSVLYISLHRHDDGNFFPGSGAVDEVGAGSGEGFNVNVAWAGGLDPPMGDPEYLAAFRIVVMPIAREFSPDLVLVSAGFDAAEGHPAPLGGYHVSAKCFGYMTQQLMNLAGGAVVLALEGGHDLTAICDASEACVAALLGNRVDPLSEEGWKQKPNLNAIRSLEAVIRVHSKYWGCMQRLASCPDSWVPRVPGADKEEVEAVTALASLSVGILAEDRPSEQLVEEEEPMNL
propertyLabel: IC50

Query O=C(/C=C/c1ccc(C(F)(F)F)cc1)NO yields IC50 of > 100 µM

====

- tgt: UniProt O15379
- Sequence (O15379 whole entry): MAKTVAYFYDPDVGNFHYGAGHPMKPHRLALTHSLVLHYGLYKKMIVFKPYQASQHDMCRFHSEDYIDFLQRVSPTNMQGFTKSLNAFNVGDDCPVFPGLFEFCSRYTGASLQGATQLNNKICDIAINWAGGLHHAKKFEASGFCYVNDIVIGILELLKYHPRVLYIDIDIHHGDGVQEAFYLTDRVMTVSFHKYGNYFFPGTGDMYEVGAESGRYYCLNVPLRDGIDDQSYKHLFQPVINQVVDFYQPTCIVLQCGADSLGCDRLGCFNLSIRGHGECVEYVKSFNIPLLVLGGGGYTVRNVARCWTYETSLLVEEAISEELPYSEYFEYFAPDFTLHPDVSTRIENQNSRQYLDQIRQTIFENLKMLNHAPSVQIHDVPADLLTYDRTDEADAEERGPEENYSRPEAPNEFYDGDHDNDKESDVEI
propertyLabel: IC50 (µM)
Number in µM, nothing else.

Readout IC50 for O=C(/C=C/c1ccc(C(F)(F)F)cc1)NO , test system UniProt O15379, was 5.37

====

- assayProtocol: Cytotoxicity against human HuH7 cells assessed as inhibition of cell viability at 10 uM after 3 days by CellTiter 96 aqueous one solution cell proliferation assay
- Assay type: cell-based, Huh-7
- assayContext: read-out: Activity
propertyLabel: inhibition at 72 h, 10 µM

C#CCCCC(=O)NCCOCCOCCOc1ccc(C(=O)c2ccc(/C=C/C(=O)O)cc2)cc1; < 5%

Then this compound:
Query [N-]=[N+]=NCCCNC(=O)CCCC[C@@H]1SC[C@@H]2NC(=O)N[C@@H]21 yields inhibition at 72 h, 10 µM of < 5%
